Source: ChEMBL document CHEMBL1155937

- Assay name: pKa of the compound
- Format: physicochemical
Recorded endpoint: pKa
Give bare numbers.

Report pKa for "O=c1c(-c2nnn[nH]2)coc2ccccc12" please.
5.85

---

Exercise: state measured MIC for each of the compounds provided.
- Test system: Streptococcus pneumoniae
- Assay name: Antibacterial activity against Streptococcus pneumoniae ATCC 49619 after 24 hrs by twofold serial dilution method
- Format: functional
- Condition parameters: ATCC 49619, 24 h

Worked cases, answers included:
>>> val("Cc1ccc2occ(/C=C(/c3ccc([N+](=O)[O-])cc3)c3nnn[nH]3)c(=O)c2c1")
"> 32 µg/mL"
>>> val("O=c1c(/C=C(/c2ccc([N+](=O)[O-])cc2)c2nnn[nH]2)coc2ccc(Cl)cc12")
"> 32 µg/mL"

Report MIC for "O=c1c(/C=C(/c2ccc([N+](=O)[O-])cc2)c2nnn[nH]2)coc2ccc(Br)cc12" please.
> 32 µg/mL
